Data provenance is patent US20230318003A1.

assay: Solubility testing, saturated solutions in milli-Q water at ambient temperature; settings: thermodynamic from solid, Test 3, milli-Q water

smiles record | solubility (mM)
C[N+](C)(C)CCCN1C(=O)c2ccc3c4c(ccc(c24)C1=O)C(=O)N(CCC[N+](C)(C)C)C3=O | 691
C[N+](C)(C)CCCN1C(=O)c2cc(Br)c3c4c(cc(Br)c(c24)C1=O)C(=O)N(CCC[N+](C)(C)C)C3=O | 154
